Assay: Approximate solubility by solvent aliquot addition, visual inspection
Type: physicochemical
Conditions: organic solvent or mixture, thermodynamic from solid; MTBE, ambient temperature; read-out: Solubility

COMPOUND | solubility
CC(C)(c1ccc(OCc2ccnc(NS(C)(=O)=O)n2)cc1)c1cc(Cl)c(OCCCl)c(C#N)c1 [Compound I] | < 1000 µg/mL

====

Test: Equilibrium solubility acquired at 24 hours
Format: physicochemical
Conditions: organic solvent or mixture, thermodynamic from solid, EtOH
PROPERTY_MEASURED: solubility at 24 h (µg/mL)

COMPOUND | PROPERTY_MEASURED | SCALE_UNIT | MEASURED_NUMBER
CC(C)(c1ccc(OCc2ccnc(NS(C)(=O)=O)n2)cc1)c1cc(Cl)c(OCCCl)c(C#N)c1 [Compound I] | solubility at 24 h | µg/mL | 170

Reference source for all entries: patent US11518747B2
